- System: PXR homodimer (NR concentration 270 nM)
- experimental_details: PBM binding z-score (relative to random genomic background probes); higher = stronger binding; sequences stand for … in GC…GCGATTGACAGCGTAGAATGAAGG
Classes by PBM binding z-score: bottom range (below -0.2), center range (-0.2 to below 0.4), top range (0.4 or more)

macromolecule_sequence	label
CCTGGTAGGTCATGGTCAGCTAATCTACAGTATG	center range

Please let me know in which category the item TCATATAGGTAACACAGGTGAAAGTCGGCATCTA belongs.
top range

The entry to classify is TCATATAGGTAAAGGTGAAAGCCGAACGATATGA ; which class holds it?
bottom range

Category of CAAACTAGGTCAAGAGGTCAATGTCCGCTTCCCG , please.
top range

Class (by measured PBM binding z-score) for CCGAGTGGGGCAAAGGTTACCATACTCAGTACGA
center range

Category of ACAGACAGGTGAGTGAAGGTAACTCACCTGGACG :
center range

# bin lookup: classify CGTCCAAGGTCAATGCTAGGTCAGTGAAAGCATT by its PBM binding z-score
top range

---

Parameter PBM binding z-score: see the listing below.
- Test system: PPARg:RXRa (NR concentration 180 nM, RXRa partner concentration 90 nM)
- experimental_details: PBM binding z-score (relative to random genomic background probes); higher = stronger binding; sequences stand for … in GC…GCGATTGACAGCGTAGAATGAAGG
Reply with just the number.

Answered cases to consult:
macromolecule_sequence	study_system	reported
ACAGACAGGTGATGATGGTAACTCAGGCTATCAT	PPARg:RXRa (NR concentration 180 nM, RXRa partner concentration 90 nM)	0.679
AGAACGAGGGCACGCTGAGTTGATAGCAGAGTAG	PPARg:RXRa (NR concentration 180 nM, RXRa partner concentration 90 nM)	2.01
CAACCTAGGTCAAAGGTCAAAGTCGAGCCAACCA	PPARg:RXRa (NR concentration 180 nM, RXRa partner concentration 90 nM)	12.5
TCTGCTAGGTCAGTTGGTCACCTAACGAGCTGCC	PPARg:RXRa (NR concentration 180 nM, RXRa partner concentration 90 nM)	1.03
ATCTCTAGGTAGAGTTCAGTGAAAGATCGATAGA	PPARg:RXRa (NR concentration 180 nM, RXRa partner concentration 90 nM)	1.1

PBM binding z-score for CCTACTGGGCCACGAAAGGTCATTGCTTCAGTGA ?
4.49

Please look up its PBM binding z-score: ACATACAGGTGATGAAGGTAACTCAGGCTATCAT
1.06

Returns the measured PBM binding z-score for the input sequence. Input: TTGCCTAGGTCAGATCGGGCCAGTATACGCTATA
0.532

---

- Tested on: PXR homodimer (NR concentration 270 nM)
- experimental_details: PBM binding z-score (relative to random genomic background probes); higher = stronger binding; sequences stand for … in GC…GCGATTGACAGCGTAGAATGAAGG
measurement_name: PBM binding z-score
Hey, just send me the number, nothing else.

macromolecule_sequence	PBM binding z-score
GCGACTGGGGCAACGCAGGTTACCATAAGGTTGG	-0.69
GATACAGGGTCAGCTAGAGGCCACAGTATGGAAA	-0.253
CCTAGTTGGTCAGGATGTCACACACCGGATATGA	0.254
ATCGACAGGTCGAAGGTGAGTATACCCACCCGAA	-0.44
CCTAGCAGGTCAGGGTCACTCAAGCATTTCGCTT	0.115

Name the reported PBM binding z-score value associated with the sequence CCTTACGAGTCAAGGTTATAGCACGGGTGGTACG
0.506

Which PBM binding z-score value is on record for ATCGAAAGGTCGTGAGGAGAGTATACAGAAAGGC ?
0.666

Look up PBM binding z-score: TCTAGCAGGTCAGAGGGTCACTCAAGAGGTACGG
-0.129

---

- Test system: PPARg:RXRa DBDmut IVT, anti-RXR (DBD mutation: RXRa K156A/R161A, NR concentration 270 nM, RXRa partner concentration 90 nM)
- experimental_details: PBM binding z-score (relative to random genomic background probes); higher = stronger binding; sequences stand for … in GC…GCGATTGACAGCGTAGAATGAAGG
measurement_name: PBM binding z-score
Form rule: numeric answer, no unit written next to it.

macromolecule_sequence	measurement_name	reported
TCGAGTAGGTTAGGGGTATTCAGAATGGCGTCGA	PBM binding z-score	2.5
ATCTCTAGGTAAAAGTACAGTGAATCCCGAGGAT	PBM binding z-score	1.64
TCGAGTAGGTTAGTCGGGGCCTTCAGCCAACATA	PBM binding z-score	1.83
GCGACTGGGACAAAGCAGGTTACCATAAGGTTGG	PBM binding z-score	2.44
TCTGCTAGGTCAACGATGGTCAGCTACTCTGCTA	PBM binding z-score	4.3

Fill blank: measured PBM binding z-score of the sequence TCGAGTAGGTTACCAATGGGGCAATCAGCTTTCT is ____.
3.39

Entry CCGACTGGGGCAGAAAGCTTACCATACCATCCGG has what PBM binding z-score?
1.49

Fill in the blank: the reported PBM binding z-score of TCTTGTAGATCAACAGGAAGTTAAGAAAGATCGA is ____.
1.64

---

- System: RARa homodimer (NR concentration 270 nM)
- experimental_details: PBM binding z-score (relative to random genomic background probes); higher = stronger binding; sequences stand for … in GC…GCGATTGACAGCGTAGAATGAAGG
measurement_name: PBM binding z-score
Simply state the number, no unit and no words.

macromolecule_sequence	study_system	reported
CGTCCAAGGTCAAGGCCAGTGAAAGAGACTCGAA	RARa homodimer (NR concentration 270 nM)	0.0458
CCTAGTTCGTCAAGGTCACACACGCTATAGGTAC	RARa homodimer (NR concentration 270 nM)	2.49

Record request: PBM binding z-score value, item CCGACTGGGGCAAAGGTTAGCATACTCAGTACGA
-0.0647

Fill in: PBM binding z-score of ATATGTAGGTTACGGGTCATTCAGGTTGGTTCGC is ___
1.28

Data request, read-out PBM binding z-score, for ATCTCTAGGGAAGACTCAGTTCAGTGAAGAACGC
0.457

Return reported PBM binding z-score; argument: GCTCGGAGGTCAAGGTCAGAGCTTTGTCCGTAGA
2.29

---

- Test system: PPARg:RXRa 270nM:90nM, anti-RXR (NR concentration 270 nM, RXRa partner concentration 90 nM)
- experimental_details: PBM binding z-score (relative to random genomic background probes); higher = stronger binding; sequences stand for … in GC…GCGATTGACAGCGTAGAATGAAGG
measurement_name: PBM binding z-score
Returns: the value as a bare number; no unit string appended.

# annotated cases, reported PBM binding z-score shown
macromolecule_sequence	PBM binding z-score
AGCCAAAGTTCAGGACGAGGTAACGTAAAGCACG	3.54
CCTCCAAGGTCAATGCTAGGTCAGTGAAAGCATT	4.93

Query (sequence): CCTAGTTGGTCAGGAGGGCACACACCGGATATGA ; field requested: PBM binding z-score
0.912

Query: PBM binding z-score; subject: GCTAGTTGGTCAGTTAAAGGTCACACACCGGTCG
5.17

Fill in: PBM binding z-score of TAGACTAGGTCATTGGGCCAGTATAGTACGCATC is ___
5.24

If you can, please state the reported PBM binding z-score value of AGAATGAGGTTATACGTAGACCAGGGAAGAAAGT .
1.98

May I ask what PBM binding z-score has been recorded for ATCGAAAGGTCGAAGGTGTGTATACCCACCCGAA ?
3.32

Find the recorded PBM binding z-score belonging to CCAGACAGGAGAGAAGGTAACTCAGCCTCGATTA and report it.
-0.148

---

Entries annotated with measured PBM binding z-score
- Tested on: RARg homodimer (NR concentration 270 nM)
- experimental_details: PBM binding z-score (relative to random genomic background probes); higher = stronger binding; sequences stand for … in GC…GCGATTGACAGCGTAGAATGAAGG
Lab note: jot down the number only; don't add units.

Some sequences with recorded PBM binding z-score:
macromolecule_sequence	PBM binding z-score
AGTCAAAGTTCATCTAGGTAATGTAAGATATGCT	6.17
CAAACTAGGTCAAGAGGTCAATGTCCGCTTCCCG	7.46
TCGAGTAGGTTAGGGGCATTCAGAATGGCGTCGA	0.406
ACTCGGAGGACAAAGGTCAGAGATACGCCAGTGA	5.31
ATCTCTAGATAACCAAGTTCAGTGAATGCCGAAC	0.535

API: the following record is the query input.
Which PBM binding z-score value is on record for CTTCCAAGGTCAATGCTAGGTCAGTGAAAGCATT ?
6.93
